Test: NCI Yeast Anticancer Drug Screen. Data for the cln2 rad14 strain (AID 165);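 also: 0% = growth equal to vehicle treated cultures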
Settings: S. cerevisiae cln2 rad14 strain, at 50.0 µM, active compounds read high
This is part of a sample that, as a whole, favours compounds with a hit. Of some 79,000 tested, about 15% had one in any assay.
Exercise: state measured growth inhibition for each of the compounds provided.
Dear colleague, please return just the value in %, with no unit written.

Q. Output measured growth inhibition for this item: "COC(=O)c1cc(-c2ccc(OC)cc2)[nH]c(=O)c1C#N"
A. 20.4

Q. Using the record for "COC(=Nc1cccc2ccccc12)Nc1cccc2ccccc12" , state its measured growth inhibition.
A. 7.95

Q. Assign growth inhibition to the following record: "BrCCOC(OCCBr)(c1ccccc1)c1ccccc1"
A. 11.5

----------
Experiment: NCI Yeast Anticancer Drug Screen. Data for the mec2-1 strain (AID 157)
Conditions: S. cerevisiae mec2-1 strain, at 50.0 µM, active compounds read high
The panel holds about 79,000 compounds, 15% with a hit somewhere; the sample as a whole holds those more often.
recorded_metric: growth inhibition (%)
Please reply with the bare figure in % and do not write the unit itself.

Q. Return growth inhibition for the following compound: "O=C(COCC(=O)N/N=C/c1ccc(Cl)cc1Cl)N/N=C\c1cc(Cl)cc(Cl)c1"
A. -1.65

Q. Please look at this compound and report its growth inhibition: "CS(=O)(=O)N(CCC#N)c1ccc(C=O)cc1"
A. -24.7

Q. Report growth inhibition, nothing else, for this compound: CCCCOC(=O)C(C)O (stereo unspecified)
A. 16.3

Q. // fetch growth inhibition given entry "CCOC(=O)c1cnc(C)nc1Nc1ccccc1"
A. 11.4

Q. Give the reported value of growth inhibition for this record: "O=C(Oc1ccc2ccccc2c1CN1CCOCC1)c1ccc([N+](=O)[O-])cc1"
A. 29.9

Q. Quick one: give measured growth inhibition for O=NN(CCCl)C(=O)NC1CCC(O)CC1 (stereo unspecified)
A. -10.8

----------
Can you tell me growth inhibition for the items I'm about to list?
Test: NCI Yeast Anticancer Drug Screen. Data for the mec2-1 strain (AID 157)
Settings: S. cerevisiae mec2-1 strain, at 50.0 µM, active compounds read high
About 79,000 compounds went through this panel and 15% of them were active in at least one assay; those are over-represented in the sample as a whole.
Entry rule: numbers only, all in %.

Q. Quote growth inhibition reported for "Cc1cc(C)nc(NC(=O)COc2ccc(Cl)cc2)c1" please.
A. 5.95

Q. Supply growth inhibition value. Item: Cc1ccc2c(c1)C(C(C)C)CCC2(C)C (centres undefined)
A. -8.1

Q. Respond only with growth inhibition recorded for "CCCCCCCCCCCCCCCCCC(N)=O"
A. -14.2

Q. Dear colleague, please send me the reported growth inhibition for "Fc1ccc(CSC(=S)Nc2ccc(I)cc2)cc1" when you can.
A. 99.2

----------
Experiment: NCI Yeast Anticancer Drug Screen. Data for the cln2 rad14 strain (AID 165);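 also: 0% = growth equal to vehicle treated cultures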
Conditions: S. cerevisiae cln2 rad14 strain, at 50.0 µM, active compounds read high
This is part of a sample that, as a whole, favours compounds with a hit. Of some 79,000 tested, about 15% had one in any assay.
recorded_metric: growth inhibition (%)
Quick reminder: number only, in %, skip the unit.

Q. Give the value of growth inhibition reported for the following: COC(=O)C1(F)C(=O)NC(=O)NC1OC (centres undefined)
A. 10.3

Q. Recall and state the measured growth inhibition for COC1/C=C/OC2(C)Oc3c(C)c(O)c4c(O)c(c(/C=N/N5CC(C)N(C(=O)c6ccccc6)C(C)C5)c(O)c4c3C2=O)NC(=O)C(C)=C/C=C/C(C)C(O)C(C)C(O)C(C)C(OC(C)=O)C1C (centres undefined) .
A. 24.6

Q. Please list growth inhibition recorded for the compound "OCCNc1ncnc2nc[nH]c12"
A. 65.5

Q. Find the measured growth inhibition of COc1cc(C(C)O)c[n+](Cc2ccccc2)c1 (centres undefined) and report it.
A. 3.6
